# Tested on: B7-supertype molecules (B*0702, B*3501, B*5101, B*5301, B*5401)
# TEST SUMMARY: B7-supertype cross-reactive binding
# Set-up: species or system human
# RUN PARAMETERS: of five B7-supertype alleles tested
Where a SMILES comes first, the peptide text is derived from it.
MEASUREMENT LABEL: No. of B7 Alleles Crossbound
// return a plain number; no unit text

input: I have this compound here, CC(C)C[C@H](NC(=O)[C@H](CO)NC(=O)[C@H](CCCNC(=N)N)NC(=O)[C@H](Cc1ccc(O)cc1)NC(=O)[C@H](Cc1ccccc1)NC(=O)[C@@H](NC(=O)[C@H](CO)NC(=O)[C@H](CC(=O)O)NC(=O)[C@H](CC(C)C)NC(=O)[C@@H]1CCCN1C(=O)[C@@H](N)Cc1ccccc1)[C@@H](C)O)C(=O)O , and I need its recorded No. of B7 Alleles Crossbound.
output: 4

input: Would you kindly repeat that for CC[C@H](C)[C@H](NC(=O)[C@@H](NC(=O)[C@H](Cc1ccc(O)cc1)NC(=O)[C@H](CCCNC(=N)N)NC(=O)CNC(=O)[C@H](CCC(=O)O)NC(=O)[C@@H]1CCCN1C(=O)[C@H](CC(N)=O)NC(=O)[C@@H]1CCCN1C(=O)[C@@H](N)Cc1ccccc1)[C@@H](C)O)C(=O)O ?
output: 5

input: And then CC[C@H](C)[C@H](NC(=O)[C@@H]1CCCN1C(=O)[C@H](CCSC)NC(=O)[C@H](Cc1ccc(O)cc1)NC(=O)[C@H](CO)NC(=O)[C@H](CC(C)C)NC(=O)[C@H](CC(=O)O)NC(=O)[C@@H]1CCCN1C(=O)[C@@H](N)Cc1ccccc1)C(=O)O , what is it?
output: 5

input: Entry to check: CC(C)C[C@H](NC(=O)[C@@H]1CCCN1C(=O)[C@@H](N)Cc1ccccc1)C(=O)N1CCC[C@H]1C(=O)N[C@@H](C)C(=O)N[C@@H](C)C(=O)N[C@@H](CCCNC(=N)N)C(=O)N1CCC[C@H]1C(=O)N[C@@H](C)C(=O)O
output: 3

input: Ok, now CC[C@H](C)[C@H](NC(=O)[C@H](CO)NC(=O)[C@H](CC(C)C)NC(=O)[C@H](CC(=O)O)NC(=O)[C@@H]1CCCN1C(=O)[C@H](CCCCN)NC(=O)[C@@H](NC(=O)CNC(=O)[C@H](CO)NC(=O)[C@@H]1CCCN1C(=O)[C@@H](N)CS)C(C)C)C(=O)O
output: 3

input: Same question for CC[C@H](C)[C@H](NC(=O)[C@H](CO)NC(=O)[C@@H](NC(=O)[C@@H](NC(=O)[C@H](CO)NC(=O)[C@@H](NC(=O)[C@H](CC(C)C)NC(=O)[C@@H]1CCCN1C(=O)[C@@H](N)CO)[C@@H](C)O)[C@@H](C)CC)[C@@H](C)CC)C(=O)O please.
output: 3

input: What about CC[C@H](C)[C@H](NC(=O)[C@@H]1CCCN1C(=O)[C@H](CC(C)C)NC(=O)[C@@H]1CCCN1C(=O)CNC(=O)[C@H](CCC(=O)O)NC(=O)[C@H](CCCNC(=N)N)NC(=O)[C@@H]1CCCN1C(=O)[C@@H](N)Cc1ccccc1)C(=O)O ?
output: 3

input: Consider next the compound CC[C@H](C)[C@H](NC(=O)[C@@H](NC(=O)[C@H](CCCNC(=N)N)NC(=O)[C@H](CCSC)NC(=O)[C@H](CCC(N)=O)NC(=O)[C@H](C)NC(=O)[C@H](CCC(N)=O)NC(=O)[C@H](CC(N)=O)NC(=O)[C@@H]1CCCN1C(=O)[C@@H](N)Cc1ccccc1)[C@@H](C)CC)C(=O)O in the same way.
output: 4

input: Moving on to CC[C@H](C)[C@H](NC(=O)[C@H](C)NC(=O)CNC(=O)[C@H](CO)NC(=O)[C@@H]1CCCN1C(=O)[C@@H](NC(=O)[C@H](CC(C)C)NC(=O)[C@@H]1CCCN1C(=O)[C@@H](N)Cc1ccccc1)[C@@H](C)O)C(=O)O
output: 3

input: And CC(C)C[C@H](NC(=O)CNC(=O)[C@H](Cc1ccc(O)cc1)NC(=O)[C@H](CS)NC(=O)[C@@H](NC(=O)[C@H](CCCNC(=N)N)NC(=O)[C@H](C)NC(=O)[C@H](CS)NC(=O)[C@@H]1CCCN1C(=O)[C@@H](N)Cc1ccccc1)C(C)C)C(=O)O ?
output: 3

input: Lookup CSCC[C@H](NC(=O)[C@H](C)NC(=O)CNC(=O)[C@H](CO)NC(=O)[C@@H]1CCCN1C(=O)[C@@H](NC(=O)[C@H](CC(C)C)NC(=O)[C@@H]1CCCN1C(=O)[C@@H](N)Cc1ccccc1)[C@@H](C)O)C(=O)O
output: 4

input: How about this compound: CC(C)C[C@H](NC(=O)[C@@H]1CCCN1C(=O)[C@H](CO)NC(=O)[C@H](C)NC(=O)[C@@H]1CCCN1C(=O)[C@@H](N)Cc1ccccc1)C(=O)N[C@@H](CC(=O)O)C(=O)N[C@@H](CO)C(=O)N[C@H](C(=O)N[C@@H](Cc1ccccc1)C(=O)O)[C@@H](C)O
output: 4

input: Quick one: CC[C@H](C)[C@H](NC(=O)[C@@H](NC(=O)[C@H](C)NC(=O)[C@H](CO)NC(=O)[C@@H](NC(=O)[C@@H](NC(=O)[C@H](CO)NC(=O)[C@@H](NC(=O)[C@H](CC(C)C)NC(=O)[C@@H]1CCCN1C(=O)[C@@H](N)Cc1ccccc1)[C@@H](C)O)[C@@H](C)CC)[C@@H](C)CC)C(C)C)C(=O)O
output: 5

input: Consider next the compound CC(C)C[C@H](NC(=O)CNC(=O)[C@H](Cc1ccc(O)cc1)NC(=O)[C@H](CS)NC(=O)[C@@H](NC(=O)[C@H](CCCNC(=N)N)NC(=O)[C@H](C)NC(=O)[C@H](CS)NC(=O)[C@@H]1CCCN1C(=O)[C@@H](N)CCCCN)C(C)C)C(=O)O [Her2/neu.336] (H-KPCARVCYGL-OH) in the same way.
output: 1

The reported numbers originate from patent US20040121946A9.
